Origin of the recorded values: PubChem BioAssay AID1159580

Method description: chemical genetic growth profiling, strain panel (AID 1159580);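 further: tested at 20 µM; growth read once vehicle control cultures reached saturation at 30 °C; 1 = growth at the plate median or of vehicle wells; lower values mean less growth of the strain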
Cond: S. cerevisiae deletion strains, growth OD, locus YPL204W, strain HRR25, active compounds read low
Screen size: about 5,500 compounds; about 2,000 (36%) were called active. About 18% were inconclusive and are not listed. This is one part of the list.
# normalized growth listing for each entry below
Property measured: normalized growth

compound=CC(C)(C)c1csc(NNC(=O)c2ccc(Cl)cc2)n1 quantitative_result=0.914
compound="CCC(C)COC(=O)/C=C/c1ccc(N=Cc2ccc(OC)cc2)cc1 (stereo not given)" quantitative_result=0.719
compound="CCC(C)Cn1c(Sc2ncc([N+](=O)[O-])s2)n[nH]c1=O (stereo not given)" quantitative_result=0.683
compound="Cc1cc(C(=O)N(c2ccccc2)C(C)C2CC2)c(Cl)cc1Cl (stereo not given)" quantitative_result=0.918
compound=C/C(=N/Nc1nc(C(C)(C)C)cs1)c1ccc(Cl)c(Cl)c1 quantitative_result=0.899

* * *

Method description: chemical genetic growth profiling, strain panel (AID 1159580)
Cond: S. cerevisiae deletion strains, growth OD, locus YCL016C, strain dcc1, active compounds read low
Out of some 5,500 compounds screened, about 2,000 (36%) were called active. Roughly 18% stayed inconclusive and do not appear here. The list shows a part of the results.
Measured normalized growth, listed per entry.
Property measured: normalized growth

chem_smiles=CC(=O)Nc1ccc(O)cc1 quantitative_result=1.01
chem_smiles=N[C@@H]1CONC1=O quantitative_result=0.953
chem_smiles=Nc1ccc(C(=O)Oc2ccccc2)c(O)c1 quantitative_result=0.942

* * *

Method description: chemical genetic growth profiling, strain panel (AID 1159580);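 further: tested at 20 µM; growth read once vehicle control cultures reached saturation at 30 °C; 1 = growth at the plate median or of vehicle wells; lower values mean less growth of the strain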
Cond: S. cerevisiae deletion strains, growth OD, locus YKR091W, strain srl3
About 2,000 (36%) of roughly 5,500 compounds were called active. Another 18% or so got no clear call; they are omitted. Cut-off read from the data, not from the text of the source: active = normalized growth mostly below about 0.91 (no sharp cut-off); inconclusive = no clear call, values can overlap the other calls; inactive = mostly above about 0.92. The list shows a part of the results.
Labels: true = active, false = inactive

compound=CCCCCCCCCCCCCCCC[n+]1ccccc1 class_assignment=true
compound="C[C@@H]1CC[C@@]2(OC1)OC1C(O)C3C4CC[C@H]5C[C@H](O[C@@H]6O[C@H](CO)[C@H](O[C@@H]7O[C@H](CO)[C@@H](O)[C@H](O[C@@H]8OC[C@@H](O)[C@H](O)[C@H]8O)[C@H]7O[C@@H]7O[C@H](CO)[C@H](O)[C@H](O[C@@H]8O[C@H](CO)[C@@H](O)[C@H](O)[C@H]8O)[C@H]7O)[C@H](O)[C@H]6O)[C@H](O)C[C@]5(C)C4CC[C@]3(C)C1[C@@H]2C (stereo partly drawn)" class_assignment=false
compound="CC[N+]1(C)CCCC(OC(=O)C(O)(c2ccccc2)c2ccccc2)C1 (stereo not drawn)" class_assignment=false
compound="C=CCCCCCCCCCCCC(O)CC(O)CO (stereo not drawn)" class_assignment=false
compound="CN(C)C(=O)Oc1cc(OC(=O)N(C)C)cc(C(O)CNC(C)(C)C)c1 (stereo not drawn)" class_assignment=false
compound=COc1cc2c(cc1OC)-c1cc3ccc(OC)c(OC)c3c[n+]1CC2 class_assignment=false
compound="CC1(C)O[C@@H]2CC3C4CCC5=CC(=O)C=C[C@]5(C)[C@@]4(F)[C@@H](O)C[C@]3(C)[C@]2(C(=O)CO)O1 (stereo partly drawn)" class_assignment=false
compound="CC(=O)O[C@H]1C[C@@H](O)C(C)(C)C2C[C@@H](OC(C)=O)[C@]3(C)C(CC[C@@]4(C)[C@H](c5ccoc5)OC(=O)C5OC543)[C@]21C (stereo partly drawn)" class_assignment=false
compound=CC(=O)Oc1ccc(-c2cc(=O)c3c(OC(C)=O)cc(OC(C)=O)cc3o2)cc1 class_assignment=false
compound="Cn1nnnc1SCC1=C(C(=O)O)N2C(=O)C(NC(=O)C(O)c3ccccc3)C2SC1 (stereo not drawn)" class_assignment=false
compound=O=C(O)/C=C(\CC(=O)O)C(=O)O class_assignment=false
compound=O=C1c2c(O)ccc(O)c2C(=O)c2c(NCCNCCO)ccc(NCCNCCO)c21 class_assignment=false
compound="CC(C)(O)[C@@H]1CC[C@](C)([C@H]2[C@@H](O)C[C@@]3(C)C4C[C@H](O[C@@H]5O[C@H](CO)[C@@H](O)[C@H](O)[C@H]5O)C5C(C)(C)[C@@H](O[C@@H]6OC[C@@H](O)[C@H](O)[C@H]6O)CC[C@@]56C[C@@]46CC[C@]23C)O1 (stereo partly drawn)" class_assignment=false
compound=O=C1CC[C@]23C=CC(=O)NCCCCNCCCNC(=O)/C=C/c4ccc(c2c4)O[C@@H]3C1 class_assignment=false
compound="CC1(C)O[C@@H]2CC3C4C[C@H](F)C5=CC(=O)C=CC5(C)C4C(O)CC3(C)[C@]2(C(=O)CO)O1 (stereo partly drawn)" class_assignment=false
compound=ClC(Cl)=C(c1ccc(Cl)cc1)c1ccc(Cl)cc1 class_assignment=false
compound=C/C(=C\C(=O)OCCCCCCCCC(=O)O)C[C@@H]1OC[C@H](C[C@@H]2O[C@H]2[C@@H](C)[C@H](C)O)[C@@H](O)[C@H]1O class_assignment=false
compound="CC(=O)O[C@@H]1CC2C(C)(C)[C@H](O)C[C@H](O)[C@]2(C)C2CC[C@@]3(C)[C@H](c4ccoc4)OC(=O)[C@H]4O[C@]43[C@@]21C (stereo partly drawn)" class_assignment=false
compound=COc1ccc(-c2cc(=O)c3c(OC(C)=O)cc(OC(C)=O)cc3o2)cc1 class_assignment=false
compound=COc1cccc2c1cc([N+](=O)[O-])c1c(C(=O)O)cc3c(c12)OCO3 class_assignment=false
compound=CN(C)CCC=C1c2ccccc2CCc2ccccc21 class_assignment=false
compound=CC(=O)Oc1c(-c2ccccc2)oc2c(CC=C(C)C)c3c(c(OC(C)=O)c2c1=O)C=CC(C)(C)O3 class_assignment=true
compound=COc1ccc(-c2cc(=O)c3ccccc3o2)cc1 class_assignment=true

* * *

Recorded normalized growth for the following compounds
Method description: chemical genetic growth profiling, strain panel (AID 1159580);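 further: tested at 20 µM; growth read once vehicle control cultures reached saturation at 30 °C; 1 = growth at the plate median or of vehicle wells; lower values mean less growth of the strain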
Cond: S. cerevisiae deletion strains, growth OD, locus YOL006C, strain TOP1, active compounds read low
Screen size: about 5,500 compounds; about 2,000 (36%) were called active. About 18% were inconclusive and are not listed. The list shows a part of the results.
Property measured: normalized growth

compound="CC(=O)CC(c1ccccc1)c1c(O)c2ccccc2oc1=O (centres undefined)" quantitative_result=1
compound=CN1CNc2c(c(=O)n(C)c(=O)n2C)C1 quantitative_result=1.02
compound="C=C1C2CC[C@@]3(C)[C@H](c4ccoc4)OC(=O)C[C@]13O[C@H]1CC(=O)C(C)(C)[C@H](C(O)C(=O)OC)[C@@]21C (some centres undefined)" quantitative_result=1.03
compound=C[N+]1(CCCCC[N+]2(C)CCCC2)CCCC1 quantitative_result=1.04
compound=NCCc1cccc(O)c1 quantitative_result=0.986
compound=O=c1c(-c2ccc(O)cc2)coc2cc(O)cc(O)c12 quantitative_result=1.26
compound=COc1ccc(-c2coc3cc(OC)cc(O)c3c2=O)cc1 quantitative_result=0.863
compound=CCCCC1C(=O)N(c2ccccc2)N(c2ccccc2)C1=O quantitative_result=1.05
compound=COC(=O)C1=C(C)NC(C)=C(C(=O)OC)C1c1ccccc1[N+](=O)[O-] quantitative_result=0.202

* * *

Method description: chemical genetic growth profiling, strain panel (AID 1159580);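 further: tested at 20 µM; growth read once vehicle control cultures reached saturation at 30 °C; 1 = growth at the plate median or of vehicle wells; lower values mean less growth of the strain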
Cond: S. cerevisiae deletion strains, growth OD, locus YGL086W, strain mad1, active compounds read low
Out of some 5,500 compounds screened, about 2,000 (36%) were called active. About 18% were inconclusive and are not listed. This is one part of the list.
Property measured: normalized growth

compound=CCCCCCCCCCCCCCCC[n+]1ccccc1 quantitative_result=0.0563
compound=N[C@@H]1CONC1=O quantitative_result=1.01
compound="CCC(CCC(C)[C@H]1CCC2C3CC=C4C[C@@H](O)CC[C@]4(C)C3CC[C@@]21C)C(C)C (stereo partly drawn)" quantitative_result=0.989
compound=O=C(/C=C/c1ccccc1)c1ccc(O)cc1 quantitative_result=0.733
compound=O=c1oc2ccccc2c(O)c1Cc1c(O)c2ccccc2oc1=O quantitative_result=0.996
compound=CC(=O)N(O)CCCCCNC(=O)CCC(=O)N(O)CCCCCNC(=O)CCC(=O)N(O)CCCCCN quantitative_result=1.01
compound="OC1C(O)C(O)C(O)C(O)C1O (stereo not drawn)" quantitative_result=0.979
compound=CC(C)Oc1ccc2c(=O)cc(-c3ccccc3)oc2c1 quantitative_result=0.91
compound=CCC/C=C/C=C/[C@@H]1C[C@@H](O)[C@@H](O)C(=O)[C@H]1C=O quantitative_result=0.976
compound="C=CCCCCCCCCCCCC(O)CC(O)CO (stereo not drawn)" quantitative_result=0.875
compound=Cc1cc(=O)c2c(o1)-c1c(cc(O)c(O)c1C(=O)O)OC2 quantitative_result=1.02
compound=COc1cc([C@@H]2c3cc4c(cc3[C@H](OC(C)=O)[C@H]3COC(=O)[C@H]23)OCO4)cc(OC)c1OC quantitative_result=0.997
compound=Cc1cc2cc3c(C)cc(=O)oc3c(C)c2o1 quantitative_result=0.973
compound="CN1CCN2c3ccccc3Cc3ccccc3C2C1 (stereo not drawn)" quantitative_result=0.988
compound=COc1cccc(-c2cc(=O)c3cc(OC)ccc3o2)c1 quantitative_result=1
compound="CC1(C)O[C@@H]2CC3C4CCC5=CC(=O)C=C[C@]5(C)[C@@]4(F)[C@@H](O)C[C@]3(C)[C@]2(C(=O)CO)O1 (stereo partly drawn)" quantitative_result=0.997
compound=O=C(O)c1nc2cc(Cl)c(Cl)cc2[nH]c1=O quantitative_result=0.979
compound=COc1ccc(C(=O)/C=C/c2ccccc2)cc1 quantitative_result=0.779
